- target desc: menin (Homo sapiens, UniProt O00255, T541A)
- Construct: Menin (a.a. 1-610-6×his tag)
- Sequence (O00255 with tags, fused parts or gaps T541A): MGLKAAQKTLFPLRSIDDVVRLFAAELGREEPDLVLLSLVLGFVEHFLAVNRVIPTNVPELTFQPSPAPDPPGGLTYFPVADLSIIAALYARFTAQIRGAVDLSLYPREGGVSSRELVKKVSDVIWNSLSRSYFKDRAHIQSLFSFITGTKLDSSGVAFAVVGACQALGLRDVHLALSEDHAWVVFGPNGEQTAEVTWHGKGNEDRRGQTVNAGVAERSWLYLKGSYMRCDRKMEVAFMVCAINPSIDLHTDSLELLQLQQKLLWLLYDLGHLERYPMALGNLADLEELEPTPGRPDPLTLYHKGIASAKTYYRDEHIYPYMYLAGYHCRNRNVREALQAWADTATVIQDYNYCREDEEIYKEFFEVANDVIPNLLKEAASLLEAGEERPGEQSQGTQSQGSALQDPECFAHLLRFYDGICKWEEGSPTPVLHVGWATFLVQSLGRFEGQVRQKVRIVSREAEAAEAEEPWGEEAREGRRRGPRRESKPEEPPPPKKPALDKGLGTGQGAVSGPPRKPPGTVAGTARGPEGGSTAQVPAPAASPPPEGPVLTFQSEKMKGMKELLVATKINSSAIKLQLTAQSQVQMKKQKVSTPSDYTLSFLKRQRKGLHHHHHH
- method: Menin/MLL homogenous time-resolved fluorescence (HTRF) assay
- Format: binding
- measurement context: location 2; read-out: (2) location 2 Menin HTRF assay (IC50 (nM))
measurement label: IC50 (nM)

Known results for compounds:
compound="CNC(=O)Cn1cc(NC2CC3(CCN(c4ncnc5sc(CC(F)(F)F)cc45)C3)C2)cn1 (single isomer, unassigned) [Compound 356]" result=2680
compound="CNC(=O)c1ccc(NC2CC3(CCN(c4ncnc5sc(CC(F)(F)F)cc45)C3)C2)cc1 (single isomer, unassigned) [Compound 95]" result=34.6
compound="CNS(=O)(=O)c1ccc(NC2CCC3(C2)CN(c2ncnc4sc(CC(F)(F)F)cc24)C3)cc1 (racemic)" result=82.9
compound="FC(F)(F)Cc1cc2c(N3CCC4(CC(Nc5ccc(-c6cn[nH]c6)cc5)C4)C3)ncnc2s1 (single isomer, unassigned) [Compound 328]" result=206
compound="FC(F)(F)Cc1cc2c(N3CCC4(CC(Nc5ccc(-c6cn[nH]c6)cc5)C4)C3)ncnc2s1 (mixture of isomers) [Compound 326]" result=20.1
compound="FC(F)(F)Cc1cc2c(N3CCC4(CC(Nc5ccc(-c6cc[nH]n6)cc5)C4)C3)ncnc2s1 (stereo not shown)" result=5.3

[a] CN1CCC(c2cc(NC3CC4(CCN(c5ncnc6sc(CC(F)(F)F)cc56)C4)C3)ccc2C#N)CC1 (single isomer, unassigned) [Compound 79]
[b] Cc1nc(N2CC3(CCC(Nc4ccc(CC#N)cc4)C3)C2)c2cc(CC(F)(F)F)sc2n1 (racemic)
[c] O=c1[nH]c2ccc(NC3CC4(CCN(c5ncnc6sc(CC(F)(F)F)cc56)C4)C3)cc2o1 (single isomer, unassigned) [Compound 324]
[d] COC[C@@H]1CN(C(=O)c2ccc(NC3CC4(CCN(c5ncnc6sc(CC(F)(F)F)cc56)C4)C3)cc2)CCO1 (single isomer, unassigned) [Compound 409]
[e] COc1nc(N2CC3(CC[C@@H](NCc4cccc(-c5cc[nH]n5)c4)C3)C2)c2cc(CC(F)(F)F)sc2n1 (stereo in doubt)
Put the entries in order of IC50, starting with the largest number. Rank the items, then write their labels in that order. d, b, e, c, a

[P] CNc1nc(N2CCC3(CC(Nc4ccc(CC#N)cc4)C3)C2)c2cc(CC(F)(F)F)sc2n1 (single isomer, unassigned) [Compound 392]
[Q] FC(F)(F)Cc1cc2c(N3CCC4(CCC(NCc5ccccc5)C4)C3)ncnc2s1 (single isomer, unassigned) [Compound 6]
Endpoint returns the identifier whose IC50 is numerically larger, either P or Q . Please indicate the selected item by its label. Q
